yeast surface expression values for the variants below.
B1: scFv; the commonest letter at each place (parent)
chain 1: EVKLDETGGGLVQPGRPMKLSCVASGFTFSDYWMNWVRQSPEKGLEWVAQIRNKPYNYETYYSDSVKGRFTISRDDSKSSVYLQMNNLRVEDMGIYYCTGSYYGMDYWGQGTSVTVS
chain 2: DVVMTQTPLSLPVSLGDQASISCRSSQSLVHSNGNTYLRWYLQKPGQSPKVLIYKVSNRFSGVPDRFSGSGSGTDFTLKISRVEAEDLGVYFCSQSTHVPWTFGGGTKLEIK

variants of: B1; experiment: yeast surface expression (ratio to wild type); higher = more expressed; settings: format: scFv 4-4-20, heavy + light
Assay Metric: yeast surface expression

[[record]]
mutant_designation = "chain 1 Y103M G109W"
assay_metric = "yeast surface expression"
experimental_result = 0.221

[[record]]
mutant_designation = "chain 1 D106W G109V"
assay_metric = "yeast surface expression"
experimental_result = 0.0997

[[record]]
mutant_designation = "chain 1 G104M M105R"
assay_metric = "yeast surface expression"
experimental_result = 0.619

[[record]]
mutant_designation = "chain 1 T28G F29P"
assay_metric = "yeast surface expression"
experimental_result = 0.769

[[record]]
mutant_designation = "chain 1 Y102K G109I"
assay_metric = "yeast surface expression"
experimental_result = 0.226

[[record]]
mutant_designation = "chain 1 M105V"
assay_metric = "yeast surface expression"
experimental_result = 0.993

[[record]]
mutant_designation = "chain 1 S101M W108G"
assay_metric = "yeast surface expression"
experimental_result = 0.228

[[record]]
mutant_designation = "chain 1 W36K"
assay_metric = "yeast surface expression"
experimental_result = 0.794

[[record]]
mutant_designation = "chain 1 Y103A W108E"
assay_metric = "yeast surface expression"
experimental_result = 0.603

[[record]]
mutant_designation = "chain 1 Y102W G109V"
assay_metric = "yeast surface expression"
experimental_result = 0.19

[[record]]
mutant_designation = "chain 1 F29L S30C N35A"
assay_metric = "yeast surface expression"
experimental_result = 0.89

[[record]]
mutant_designation = "chain 1 T28Q D31A"
assay_metric = "yeast surface expression"
experimental_result = 0.845

[[record]]
mutant_designation = "chain 1 F29N N35A"
assay_metric = "yeast surface expression"
experimental_result = 0.862

[[record]]
mutant_designation = "chain 1 F29A Y32N"
assay_metric = "yeast surface expression"
experimental_result = 0.832

[[record]]
mutant_designation = "chain 1 D31E Y32P"
assay_metric = "yeast surface expression"
experimental_result = 0.77

[[record]]
mutant_designation = "chain 1 T28K F29C"
assay_metric = "yeast surface expression"
experimental_result = 0.906

[[record]]
mutant_designation = "chain 1 G100S M105I"
assay_metric = "yeast surface expression"
experimental_result = 0.943

[[record]]
mutant_designation = "chain 1 S30Q W33N"
assay_metric = "yeast surface expression"
experimental_result = 0.979

[[record]]
mutant_designation = "chain 1 Y102D W108T"
assay_metric = "yeast surface expression"
experimental_result = 0.785

[[record]]
mutant_designation = "chain 1 S30T M34I"
assay_metric = "yeast surface expression"
experimental_result = 0.678

[[record]]
mutant_designation = "chain 1 W33H M34R V37T"
assay_metric = "yeast surface expression"
experimental_result = 0.786

[[record]]
mutant_designation = "chain 1 S101D D106K"
assay_metric = "yeast surface expression"
experimental_result = 0.435

